# condition set: in water, 293.15 K
reported metric: solubility (mole fraction)
Answer field: number only, no words.

Would you mind telling me what solubility (mole fraction) value was observed for N[C@@H](Cc1ccccc1)C(=O)O ?
0.00307

###

# condition set: in ethyl acetate, 308.15 K
reported metric: solubility (mole fraction)
Answer field: number only, no words.

Tell me the measured solubility (mole fraction) of N[C@@H](Cc1ccccc1)C(=O)O , please.
3.38e-05

###

# condition set: in methanol, 298.15 K
reported metric: solubility (mole fraction)

Fill blank: measured solubility (mole fraction) of the molecule N[C@@H](Cc1ccccc1)C(=O)O is ____.
0.000937

###

# condition set: in methanol, 318.15 K
reported metric: solubility (mole fraction)

What value of solubility (mole fraction) has been reported for the following compound? N[C@@H](Cc1ccccc1)C(=O)O
0.00119
